meta.source: ChEMBL document CHEMBL3272173

Target: Gonadotropin-releasing hormone receptor (Rattus norvegicus) (UniProt P30969)
Sequence (whole entry): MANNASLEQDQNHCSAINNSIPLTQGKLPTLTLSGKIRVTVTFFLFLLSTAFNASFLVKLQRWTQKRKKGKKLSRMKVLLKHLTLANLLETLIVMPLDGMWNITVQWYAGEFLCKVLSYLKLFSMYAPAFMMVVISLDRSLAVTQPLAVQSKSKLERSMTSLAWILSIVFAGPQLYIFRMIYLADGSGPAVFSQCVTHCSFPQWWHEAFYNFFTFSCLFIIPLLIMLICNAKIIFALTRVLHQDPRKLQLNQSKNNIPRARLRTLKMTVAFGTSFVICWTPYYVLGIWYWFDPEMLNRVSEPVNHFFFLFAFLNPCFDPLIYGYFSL
Test: In vitro antagonist activity at GNRHR in CD rat anterior pituitary gland assessed as inhibition of LH-RH-stimulated LH release at compound to LH-RH molar ratio of 10 after 4 hrs by radioimmunoassay
Details: concentration not given here
MEASUREMENT_KIND: inhibition (%)
Numbers only, in %.

Some compounds with recorded inhibition:
COc1ccc(COC(=O)N[C@@H](COCc2ccccc2)C(=O)N[C@@H](Cc2c[nH]c3ccccc23)C(=O)N[C@@H](CO)C(=O)N[C@@H](Cc2ccc(O)cc2)C(=O)N[C@H](Cc2ccccc2)C(=O)N[C@@H](CC(C)C)C(=O)N[C@@H](CCCNC(=N)N)C(=O)N2CCC[C@H]2C(=O)NCC(N)=O)cc1.Cl 100
CC(=O)O.CCNC(=O)[C@@H]1CCCN1C(=O)[C@H](CCCNC(=N)N)NC(=O)[C@H](CC(C)C)NC(=O)[C@@H](Cc1ccccc1)NC(=O)[C@H](Cc1ccc(O)cc1)NC(=O)[C@H](CO)NC(=O)[C@H](Cc1c[nH]c2ccccc12)NC(=O)[C@H](CCC(=O)NCc1ccccc1)NC(=O)OCc1ccccc1 62
CCNC(=O)[C@@H]1CCCN1C(=O)[C@H](CCCNC(=N)N)NC(=O)[C@H](CC(C)C)NC(=O)[C@@H](Cc1ccccc1)NC(=O)[C@H](Cc1ccc(O)cc1)NC(=O)[C@H](CO)NC(=O)[C@H](Cc1c[nH]c2ccccc12)NC(=O)[C@H](COCc1ccccc1)NC(=O)OCc1ccccc1.Cl 93

Could you now consider this next compound?
Input line: May I ask what inhibition has been recorded for CC(C)C[C@H](NC(=O)[C@@H](Cc1ccccc1)NC(=O)[C@H](Cc1ccc(O)cc1)NC(=O)[C@H](CO)NC(=O)[C@H](Cc1c[nH]c2ccccc12)NC(=O)[C@H](COCc1ccccc1)NC(=O)OCc1ccccc1)C(=O)N[C@@H](CCCNC(=N)N)C(=O)N1CCC[C@H]1C(=O)NCC(N)=O.Cl ?
Output line: 90

====

Target: Gonadotropin-releasing hormone receptor (Rattus norvegicus)
Sequence (whole entry): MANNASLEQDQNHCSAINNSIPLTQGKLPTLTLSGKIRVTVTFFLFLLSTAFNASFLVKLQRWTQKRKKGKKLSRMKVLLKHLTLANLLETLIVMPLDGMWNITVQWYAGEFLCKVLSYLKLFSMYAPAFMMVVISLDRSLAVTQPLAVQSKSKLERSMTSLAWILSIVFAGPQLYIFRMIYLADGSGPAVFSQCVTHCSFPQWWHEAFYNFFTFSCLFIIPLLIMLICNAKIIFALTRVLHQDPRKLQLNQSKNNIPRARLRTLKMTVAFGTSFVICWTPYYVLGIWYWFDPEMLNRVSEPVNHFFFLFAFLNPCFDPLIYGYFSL
Assay: In vitro antagonist activity at GNRHR in CD rat anterior pituitary gland assessed as inhibition of LH-RH-stimulated LH release at compound to LH-RH molar ratio of 200 after 4 hrs by radioimmunoassay
Conditions: concentration not given here
So I've got a bunch of compounds here, and I need their inhibition values.

Some compounds with recorded inhibition:
CC(=O)O.CCNC(=O)[C@@H]1CCCN1C(=O)[C@H](CCCNC(=N)N)NC(=O)[C@H](CC(C)C)NC(=O)[C@H]1CCCN1C(=O)[C@H](Cc1ccc(O)cc1)NC(=O)[C@H](CO)NC(=O)[C@H](Cc1c[nH]c2ccccc12)NC(=O)[C@H](CCC(N)=O)NC(=O)OCc1ccccc1 74%
CC(=O)O.CCNC(=O)[C@@H]1CCCN1C(=O)[C@H](CCCNC(=N)N)NC(=O)[C@H](CC(C)C)NC(=O)[C@@H](CO)NC(=O)[C@H](Cc1ccc(O)cc1)NC(=O)[C@H](CO)NC(=O)[C@H](Cc1c[nH]c2ccccc12)NC(=O)[C@H](CCC(N)=O)NC(=O)OCc1ccccc1 50%
CC(C)C[C@H](NC(=O)[C@@H](CO)NC(=O)[C@H](Cc1ccc(O)cc1)NC(=O)[C@H](CO)NC(=O)[C@H](Cc1c[nH]c2ccccc12)NC(=O)[C@H](COCc1ccccc1)NC(=O)OC(C)(C)C)C(=O)N[C@@H](CCCNC(=N)N)C(=O)N1CCC[C@H]1C(=O)NCC(N)=O.Cl 68%

Batch request: inhibition for each of the following compounds.
1. CC(C)C[C@H](NC(=O)[C@@H](Cc1c[nH]c2ccccc12)NC(=O)[C@H](Cc1ccc(O)cc1)NC(=O)[C@H](CO)NC(=O)[C@H](Cc1c[nH]c2ccccc12)NC(=O)[C@H](CCC(N)=O)NC(=O)OCc1ccccc1)C(=O)N[C@@H](CCCNC(=N)N)C(=O)N1CCC[C@H]1C(=O)NCC(N)=O.Cl
2. CCNC(=O)[C@@H]1CCCN1C(=O)[C@H](CCCNC(=N)N)NC(=O)[C@H](CC(C)C)NC(=O)[C@@H](CCSC)NC(=O)[C@H](Cc1ccc(O)cc1)NC(=O)[C@H](CO)NC(=O)[C@H](Cc1c[nH]c2ccccc12)NC(=O)[C@H](CCC(N)=O)NC(=O)OCc1ccccc1.Cl

Output line:
["87%", "85%"]
